Reported TGI values for a set of molecules
- System: SF-268 CNS
- EXPERIMENT: NCI tumour cell line growth inhibition, 48 h

MOLECULE: CC1=NOC(C)(O)/C1=N/O (stereo not given)
TGI: > 100 µM
//
MOLECULE: S=C(NCCc1ccccn1)c1nc[nH]c1C(=S)NCCc1ccccn1
TGI: > 100 µM
//
MOLECULE: NC(N)=N/N=C(/CCN1CCCC1)CC(c1ccccc1)c1c(O)c2ccccc2oc1=O (stereo not given)
TGI: > 100 µM
//
MOLECULE: c1ccc(-c2n(Cc3ccc4ccccc4n3)cc[n+]2Cc2ccc3ccccc3n2)cc1
TGI: 14.7 µM
//
MOLECULE: O=C1C(C(Nc2ccccc2)c2ccccc2)=C([O-])c2ccccc21.O=C1C(C(Nc2ccccc2)c2ccccc2)=C([O-])c2ccccc21.[Ni+2] (stereo not given)
TGI: > 100 µM
